Assay: Long-term stability in plasma (bioanalytical validation)
Assay type: physicochemical, rat
Details: plasma QC samples, −20 °C storage
observed-property: stable in plasma (long-term test)

CNC(=O)c1cc(Oc2ccc(NC(=O)Nc3ccc(Cl)c(C(F)(F)F)c3)c(F)c2)cc[n+]1[O-] [M-2, REG-N-oxide]: ≥ 180 days
CNC(=O)c1cc(Oc2ccc(NC(=O)Nc3ccc(Cl)c(C(F)(F)F)c3)c(F)c2)ccn1: ≥ 180 days

Quick one: stable in plasma (long-term test) of NC(=O)c1cc(Oc2ccc(NC(=O)Nc3ccc(Cl)c(C(F)(F)F)c3)c(F)c2)cc[n+]1[O-] [M-5, N-desmethyl-REG-N-oxide] ?
≥ 180 days
